target: RIPK1 (Homo sapiens (Human), UniProt Q13546); assay: ADP-Glo kinase assay (RIPK1 activity, conversion of ATP to ADP); format: biochemical; details: 5 nM RIPK1, 50 μM ATP, 6 h reaction; read-out: RIPK1 Enzyme Avg IC50
Sequence (Q13546 1-327): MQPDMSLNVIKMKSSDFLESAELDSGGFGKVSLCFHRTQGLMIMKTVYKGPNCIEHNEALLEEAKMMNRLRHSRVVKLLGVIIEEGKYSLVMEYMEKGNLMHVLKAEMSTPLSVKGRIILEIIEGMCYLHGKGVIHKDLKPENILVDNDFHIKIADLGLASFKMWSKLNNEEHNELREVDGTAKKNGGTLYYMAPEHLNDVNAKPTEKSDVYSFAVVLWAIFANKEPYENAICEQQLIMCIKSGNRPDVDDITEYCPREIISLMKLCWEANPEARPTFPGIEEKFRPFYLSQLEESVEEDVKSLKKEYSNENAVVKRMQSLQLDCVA
pIC50: −log10 of the molar value.
Test Readout: pIC50

Some solved cases for reference:
COCc1cn(CC23CC(C(=O)N4N=CCC4c4cc(F)cc(F)c4)(C2)C3)nn1 (stereo not drawn); 5.41
N#Cc1ccc2cn(CC34CC(C(=O)N5N=CCC5c5cc(F)cc(F)c5)(C3)C4)nc2c1 (stereo not drawn); 7.72
N#Cc1cnn(CC23CC(C(=O)N4N=CCC4c4cncc(F)c4)(C2)C3)c1 (stereo not drawn); 6.51
CP(C)(=O)c1cc(OCC23CC(C(=O)N4N=CCC4c4cc(F)cc(F)c4)(C2)C3)ncn1 (stereo not drawn); 6.24

I = N#Cc1ccc2c(cnn2CC23CC(C(=O)N4CC(F)CC4c4cccc(F)c4)(C2)C3)c1 (stereo not drawn)
II = O=C(N1N=CCC1c1cc(F)cc(F)c1)C12CC(Cn3ncc4c(F)cccc43)(C1)C2 (stereo not drawn)
Name the one with the greater pIC50 value, either I or II as given. Identify your selection by its label.
II
(II: 7.96, I: 7.72)
